# MEASUREMENT_NOTES: Inhibition of melanogenesis in mouse B16-4A5 cells at 3 uM after 72 hrs by spectrophotometry relative to control
# Format: functional
# RECORDED_CONDITIONS: B16-4A5, 72 h
Mark no (0) for inhibition at 3 µM values under 30%, and yes (1) for everything at or above.

Some solved entries appear below for comparison.
CO[C@@H]1C[C@]2(CC[C@H](COC(=O)/C=C/c3ccc(O)c(O)c3)C[C@@H]2O)[C@@H](OC)O1
yes (1)
O=C[C@]1(/C=C\O[C@@H]2O[C@H](CO)[C@@H](O)[C@H](O)[C@H]2O)CC[C@H](COC(=O)/C=C/c2ccc(O)c(O)c2)C[C@@H]1O
no (0)
CC(C)[C@H]1CC[C@]2(C)C(=O)CCC(C=O)=C[C@@H]12
yes (1)
CO[C@H]1C[C@]2(CC[C@H](COC(=O)/C=C/c3ccc(O)c(O)c3)C[C@@H]2O)[C@H](OC)O1
no (0)

Q. Hi, just wondering whether `O=C[C@]1(/C=C\O[C@@H]2O[C@H](CO)[C@@H](O)[C@H](O)[C@H]2O)CC[C@H](COC(=O)C2=Cc3ccc(O)c(O)c3[C@@H](c3ccc(O)cc3)[C@@H]2C(=O)OC[C@H]2CC[C@](C=O)(/C=C\O[C@@H]3O[C@H](CO)[C@@H](O)[C@H](O)[C@H]3O)[C@@H](O)C2)C[C@@H]1O` shows inhibition at 3 µM of 30% or higher.
A. no (0)

Q. Let us now turn to `OCC[C@@]1(CO)CC[C@H](CO)C[C@@H]1O`
A. yes (1)
